Biological target: T1, GST-INADL PDZ domain 3 fusion protein (human), Q8NI35
T1 chain: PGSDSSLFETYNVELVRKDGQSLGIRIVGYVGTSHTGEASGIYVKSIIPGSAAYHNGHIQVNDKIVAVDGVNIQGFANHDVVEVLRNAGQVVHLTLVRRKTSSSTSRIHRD
Assay: G3 assay titration, immobilised GST-PDZ
No end group written: not given here. *: point of attachment. Biotin = O=C1N[C@H]2[C@H](CS[C@H]2CCCCC(=O)*)N1
QUANTITY: EC50

BINDER: Biotin-YGRKKRRQRRRARGTRLVWV [Peptide #1844 (biotin-…)]
EC50: < 20 nM
--
BINDER: YGRKKRRQRRRSTNSVRLML (not fully specified)
EC50: 120 nM
--
BINDER: Biotin-YGRKKRRQRRRARGDRTIIY [Peptide #1848 (biotin-…)]
EC50: < 2000 nM

Field request: EC50 | item: Biotin-YGRKKRRQRRRQDERRLIVL [Peptide #1842 (biotin-…)]
< 1000 nM

Field request: EC50 | item: Biotin-YGRKKRRQRRRARGDRKYIV [Peptide #1838 (biotin-…)]
< 100 nM

Field request: EC50 | item: Biotin-YGRKKRRQRRRARGDRLVSL [Peptide #1843 (biotin-…)]
< 2000 nM

Field request: EC50 | item: Biotin-YGRKKRRQRRRSRTDRKYWA [Peptide #1832 (biotin-…)]
200 nM
